- Test target: purified Human plasma Kallikrein (Homo sapiens (Human))
- Assay remarks: Kallikrein Assay
- Format: biochemical
- Test settings: purified Human plasma Kallikrein 0.5 nM; substrate Acetyl-K-P-R-AFC; 50 mM HEPES pH 7.4; Ki from IC50 by Cheng Prusoff
Flag rule - Ki less than 0.03 µM flags rule met; the remaining entries get rule not met.

Please review the following examples before continuing.
{"Compound": "COC(=O)Nc1ccc2c(c1)NC(=O)[C@@H](C)CCC[C@H](c1ccc(-c3c(F)cccc3F)c[n+]1[O-])c1nc-2c(C)[nH]1 (single isomer, unassigned)", "Group label": "rule met"}
{"Compound": "COC(=O)Nc1ccc2c(c1)NC(=O)[C@@H](C)CCC[C@@H](c1ccc(-c3c(OC(F)F)ccc(F)c3F)c[n+]1[O-])c1nc-2c(C)[nH]1 (single isomer, unassigned)", "Group label": "rule not met"}
{"Compound": "COC(=O)Nc1ccc2c(c1)NC(=O)CCCCC(c1ccc(-c3cc(Cl)ccc3-n3cnnn3)cn1)c1cc(F)cc-2c1 (stereo not drawn)", "Group label": "rule not met"}
{"Compound": "COC(=O)Nc1ccc2c(c1)NC(=O)CCCC[C@H](c1ccc(-c3c(F)cccc3-n3cc(C(F)(F)F)cn3)c[n+]1[O-])c1nc-2c[nH]1 (single isomer, unassigned)", "Group label": "rule not met"}
{"Compound": "COC(=O)Nc1ccc2c(c1)NC(=O)CCCCC(c1ccc(-c3c(F)ccc(Cl)c3F)c[n+]1[O-])c1ccnc-2c1 (single isomer, unassigned)", "Group label": "rule met"}

Turning now to a further record.
In plain terms, does CCOC(=O)Nc1ccc2c(c1)NC(=O)CCCC[C@H](c1ccc(-c3c(F)ccc(Cl)c3F)c[n+]1[O-])c1cccc-2c1 come in under 0.03 µM for Ki?
rule met

* * *

- Test target: purified Human plasma Kallikrein (Homo sapiens (Human))
- Assay remarks: Kallikrein Assay
- Assay type: biochemical
- Test settings: purified Human plasma Kallikrein 0.5 nM; substrate Acetyl-K-P-R-AFC; 50 mM HEPES pH 7.4; Ki from IC50 by Cheng Prusoff
Some compounds, each annotated with its measured pKi.
Scale explanation: pKi corresponds to minus log10 of a concentration expressed in moles per litre.

Below, 4 compounds whose answers are already recorded.
{"Compound": "O=C1CCCC[C@H](c2ccc(-c3cc(Cl)ccc3-n3cnnn3)c[n+]2[O-])c2cccc(c2)-c2cc(F)ccc2N1", "pKi": 8.57}
{"Compound": "COC(=O)Nc1ccc2c(c1)NC(=O)C(C)CCCC(c1cc(OC)c(-c3c(F)ccc(Cl)c3F)c[n+]1[O-])c1cccc-2c1 (single isomer, unassigned) [Example 88-b]", "pKi": 8.57}
{"Compound": "COC(=O)Nc1ccc2c(c1)NC(=O)CCCCC(c1cc(OC)c(-c3c(F)ccc(Cl)c3F)c[n+]1[O-])c1cccc-2c1 (single isomer, unassigned)", "pKi": 7.90}
{"Compound": "O=C(C1CCCCC(c2ccc(-c3cc(Cl)ccc3-n3cnnn3)c[n+]2[O-])c2cccc(c2)-c2cc(F)ccc2N1)N1CCCC1 (single isomer, unassigned) [Example 79-c]", "pKi": 5.53}

Next compound, please.
API: value(readout=pKi, system=purified Human plasma Kallikrein (Homo sapiens (Human))) for record COC(=O)Nc1ccc2c(c1)NC(=O)CCCC[C@H](c1ccc(-c3c(F)ccc(Cl)c3F)c[n+]1[O-])c1cc-2ccn1 (single isomer, unassigned)
8.97

* * *

- Test target: purified Human plasma Kallikrein (Homo sapiens (Human), UniProt P03952)
- Sequence (P03952 391-638): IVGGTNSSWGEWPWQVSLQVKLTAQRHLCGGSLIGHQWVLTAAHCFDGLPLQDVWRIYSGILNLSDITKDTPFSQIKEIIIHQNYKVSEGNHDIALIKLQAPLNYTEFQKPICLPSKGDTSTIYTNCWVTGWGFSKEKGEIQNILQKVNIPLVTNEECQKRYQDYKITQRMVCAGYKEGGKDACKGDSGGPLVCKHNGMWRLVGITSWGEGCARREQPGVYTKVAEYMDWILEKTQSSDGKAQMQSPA
- Sequence (P03952 20-390 partner): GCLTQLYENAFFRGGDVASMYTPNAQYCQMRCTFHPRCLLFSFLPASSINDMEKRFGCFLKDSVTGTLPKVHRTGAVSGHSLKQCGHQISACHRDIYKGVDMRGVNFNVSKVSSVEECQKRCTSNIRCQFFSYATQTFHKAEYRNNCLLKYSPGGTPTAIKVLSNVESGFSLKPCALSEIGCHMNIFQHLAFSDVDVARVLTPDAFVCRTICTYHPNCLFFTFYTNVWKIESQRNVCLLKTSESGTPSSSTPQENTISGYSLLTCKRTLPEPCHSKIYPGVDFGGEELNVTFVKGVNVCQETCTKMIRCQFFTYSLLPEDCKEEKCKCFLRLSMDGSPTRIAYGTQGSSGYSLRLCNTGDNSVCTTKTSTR
- Assay remarks: Kallikrein Assay
- Assay type: biochemical
- Test settings: purified Human plasma Kallikrein 0.5 nM; substrate Acetyl-K-P-R-AFC; 50 mM HEPES pH 7.4; Ki from IC50 by Cheng Prusoff
- Experimental: The effectiveness of a compound of the present invention as an inhibitor of Kallikrein can be determined using a relevant purified serine protease, and an appropriate synthetic substrate. The rate of hydrolysis of the chromogenic or fluorogenic substrate by the relevant serine protease was measured both in the absence and presence of compounds of the present invention. […] A decrease in the rate of fluorescence change in the presence of inhibitor is indicative of enzyme inhibition. […]
Measured attribute: Ki (nM)
Value expressed in nM; do not type the unit.

{"Compound": "COC(=O)Nc1ccc2c(c1)NC(=O)CC1CC1CC(c1ccc(-c3c(F)cccc3C(F)F)c[n+]1[O-])c1nc-2c(C)[nH]1 (racemic) [Example 156]", "Measurement units": "nM", "Ki": 13.6}
{"Compound": "CCc1[nH]c2nc1-c1ccc(NC(=O)OC)cc1NC(=O)CCCC[C@@H]2c1ccc(-c2c(F)cccc2-n2cc(C(F)(F)F)cn2)c[n+]1[O-] (single isomer, unassigned) [Example 138]", "Measurement units": "nM", "Ki": 665}
{"Compound": "COC(=O)Nc1ccc2c(c1)NC(=O)CCCC[C@H](c1ccc(-c3cc(Cl)ccc3-c3cnn(C(F)F)c3)c[n+]1[O-])c1cccc-2c1 (single isomer, unassigned) [Example 42]", "Measurement units": "nM", "Ki": 3.1}

What does the record list as Ki for COC(=O)Nc1ccc2c(c1)NC(=O)CCCC[C@H](c1ccc(-c3cc(Cl)ccc3-c3cnco3)c[n+]1[O-])c1cccc-2c1 (single isomer, unassigned) [Example 35] ?
0.7

Now give it for COC(=O)Nc1ccc2c(c1)NC(=O)CCCC[C@H](c1ccc(-c3cc(Cl)ccc3C(F)(F)F)c[n+]1[O-])c1cccc-2c1 (single isomer, unassigned) [Example 32] too.
2.95

What about this compound? CC1CCCC(c2ccc(-c3cc(Cl)ccc3-n3cnnn3)c[n+]2[O-])c2cccc(c2)-c2ccc(C#N)cc2NC1=O (stereo not drawn) [Example 84]
1.85

Query N#Cc1cnn(-c2ccc(Cl)cc2-c2ccc([C@H]3CCCCC(=O)Nc4cnn(C(F)F)c4-c4cccc3c4)[n+]([O-])c2)c1 (single isomer, unassigned) [Example 169] next
94.2

Next compound up: COC(=O)Nc1ccc2c(c1)NC(=O)CCCC[C@H](c1ccc(-c3c(F)ccc(Cl)c3F)c[n+]1[O-])c1cc(F)c(F)c-2c1 (single isomer, unassigned) [Example 69]
6.79

* * *

- Test target: purified Human plasma Kallikrein (Homo sapiens (Human), UniProt P03952)
- Assay remarks: Kallikrein Assay
- Type: biochemical
- Test settings: purified Human plasma Kallikrein 0.5 nM; substrate Acetyl-K-P-R-AFC; 50 mM HEPES pH 7.4; Ki from IC50 by Cheng Prusoff
Item-by-item account of log10 of Ki
Answers are given as log10 of Ki in nM.

{"Molecule": "COC(=O)Nc1ccc2c(c1)NC(=O)CCCCC(c1ccc(-c3c(F)cc(I)c(Cl)c3F)c[n+]1[O-])c1nc-2c[nH]1 (single isomer, unassigned)", "log10 of Ki": 2.14}

The record that follows has no log10 of Ki shown yet.
Fill blank: measured log10 of Ki of the molecule COC(=O)Nc1ccc2c(c1)NC(=O)CC1CC1CC(c1ccc(-c3c(C(F)F)ccc(C)c3F)c[n+]1[O-])c1nc-2c(C)[nH]1 (racemic) is ____.
0.69

* * *

Observed Ki, system UniProt:P03951.
Sequence (P03951 388-625): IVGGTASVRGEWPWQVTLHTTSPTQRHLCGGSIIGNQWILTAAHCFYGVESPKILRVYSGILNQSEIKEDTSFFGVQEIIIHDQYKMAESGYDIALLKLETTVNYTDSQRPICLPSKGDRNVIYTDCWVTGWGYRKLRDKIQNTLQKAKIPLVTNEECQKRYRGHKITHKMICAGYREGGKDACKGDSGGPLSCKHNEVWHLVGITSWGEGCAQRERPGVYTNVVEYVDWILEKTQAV
Sequence (P03951 19-387 partner): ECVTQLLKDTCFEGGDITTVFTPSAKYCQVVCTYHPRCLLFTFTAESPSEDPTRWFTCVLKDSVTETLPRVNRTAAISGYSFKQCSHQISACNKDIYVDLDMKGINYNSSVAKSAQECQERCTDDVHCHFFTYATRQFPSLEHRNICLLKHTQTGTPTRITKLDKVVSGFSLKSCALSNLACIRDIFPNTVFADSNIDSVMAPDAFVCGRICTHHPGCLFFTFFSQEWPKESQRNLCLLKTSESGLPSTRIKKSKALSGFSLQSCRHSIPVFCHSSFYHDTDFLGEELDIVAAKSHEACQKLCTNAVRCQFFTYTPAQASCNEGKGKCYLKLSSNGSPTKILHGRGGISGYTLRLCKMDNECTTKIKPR
The reply should be a number in nM, with the unit left off.

{"Compound": "O=C1CCCCC(c2ccc(-c3c(F)ccc(Cl)c3F)cn2)c2cccc(c2)-c2cc3c(O)cc(=O)[nH]c3cc2N1 (stereo not drawn) [Example 49]", "Ki, nM": 15.6}

Consider now this further compound.
Query the reported Ki for UniProt:P03951; item: COC(=O)Nc1ccc2c(c1)NC(=O)CCCC[C@H](c1ccc(-c3c(F)ccc(Cl)c3F)c[n+]1[O-])c1cc-2ncn1 (single isomer, unassigned) [Example 75]
2.7

* * *

Reported pKi values for a set of compounds
- Test target: purified Human plasma Kallikrein (Homo sapiens (Human), UniProt P03952)
- Assay remarks: Kallikrein Assay
- Type: biochemical
- Test settings: purified Human plasma Kallikrein 0.5 nM; substrate Acetyl-K-P-R-AFC; 50 mM HEPES pH 7.4; Ki from IC50 by Cheng Prusoff
Scale for pKi: -log10 of concentration given in mol/L; no unit attached.

{"Compound": "O=C1CCCCC(c2ccc(-c3cc(Cl)ccc3-n3cnnn3)c[n+]2[O-])c2cc[n+]([O-])c(c2)-c2cc(F)ccc2N1 (stereo not shown)", "pKi": 7.88}
{"Compound": "C[C@@H]1CCC[C@H](c2ccc(-c3cc(Cl)ccc3-n3cnnn3)c[n+]2[O-])c2cccc(c2)-c2cc(F)ccc2NC1=O", "pKi": 9.23}
{"Compound": "COC(=O)Nc1ccc2c(c1)NC(=O)[C@@H](C)CCC[C@H](c1ccc(-c3cc(Cl)ccc3OC(F)(F)F)c[n+]1[O-])c1cccc-2c1 (single isomer, unassigned)", "pKi": 7.76}
{"Compound": "COC(=O)Nc1ccc2c(c1)NC(=O)C(C)CCCC(c1ccc(-c3c(F)ccc(Cl)c3F)c[n+]1[O-])c1ccc(F)c-2c1 (single isomer, unassigned) [Example 86-d]", "pKi": 8.27}
{"Compound": "O=C1CCCCC(c2ccc(-c3c(-n4cnnn4)ccc(Cl)c3F)c[n+]2[O-])c2c[nH]c(n2)-c2cc(F)ccc2N1 (racemic)", "pKi": 8.87}
{"Compound": "COC(=O)Nc1ccc2c(c1)NC(=O)[C@H](C)CCC[C@H](c1ccc(-c3cc(Cl)ccc3OC(F)(F)F)c[n+]1[O-])c1cccc-2c1 (single isomer, unassigned)", "pKi": 8.77}
{"Compound": "CC1CCCC(c2ccc(-c3c(-n4cnnn4)ccc(Cl)c3F)c[n+]2[O-])c2cccc(c2)-c2cc(F)ccc2NC1=O (stereo not shown)", "pKi": 8.71}
{"Compound": "COC(=O)Nc1ccc2c(c1)NC(=O)CCCCC(c1ccc(-c3cc(Cl)ccc3-n3cnnn3)cn1)c1cc-2c(F)cn1 (stereo not shown)", "pKi": 7.59}
{"Compound": "COC(=O)Nc1ccc2c(c1)NC(=O)CCCC[C@H](c1ccc(-c3c(F)cccc3OC(F)F)c[n+]1[O-])c1nc-2c(C)[nH]1 (single isomer, unassigned)", "pKi": 8.69}
{"Compound": "COC(=O)Nc1ccc2c(c1)NC(=O)CCCC[C@H](c1ccc(-c3cc(Cl)ccc3-n3cc(C)cn3)c[n+]1[O-])c1nc-2c(C)[nH]1 (single isomer, unassigned)", "pKi": 7.08}

Fill in the blank: the reported pKi of CCOC(=O)Nc1ccc2c(c1)NC(=O)CCCCC(c1ccc(-c3c(F)ccc(Cl)c3F)c[n+]1[O-])c1nc-2c[nH]1 (single isomer, unassigned) is ____.
9.11
